Recorded values, source patent US10253004B2.

- experimentNotes: Chemical stability (degradation kinetics) in acidic aqueous media, HPLC recovery
- Assay type: physicochemical
- runConditions: pH ca. 1.2, 2 h, 37° C.
measureName: Chemical stability at pH ca. 1.2: degradation after 2 h at 37° C.

These solved cases illustrate the format of a correct answer.
Cc1cc(-c2nnn(C)n2)cc(C)c1-c1ccc(F)c2c1CC[C@H]2Nc1cnc([C@H]2C[C@@H]2C(=O)O)cn1
< 1%
Cc1cc(OCCC(C)(C)O)cc(C)c1-c1ccc(F)c2c1CC[C@H]2Nc1cnc([C@H]2C[C@@H]2C(=O)O)cn1
< 0.5%

[ask] Query: Chemical stability at pH ca. 1.2: degradation after 2 h at 37° C.; subject: `Cc1cc(OCCCS(C)(=O)=O)cc(C)c1-c1ccc(F)c2c1CC[C@H]2Nc1cnc([C@H]2C[C@@H]2C(=O)O)cn1`
[reply] < 0.5%

----------
- experimentNotes: Chemical stability (degradation kinetics) in acidic aqueous media, HPLC recovery
- Type: physicochemical
- runConditions: pH ca. 1.2, 37° C., acetonitrile/0.1 M aqueous HCl (2:3)
measureName: Amount of degradation after 2 h

These solved cases illustrate the format of a correct answer.
Cc1cc(-c2nnn(C)n2)cc(C)c1-c1ccc(F)c2c1CC[C@H]2Nc1cnc([C@H]2C[C@@H]2C(=O)O)cn1
<1%
Cc1c(C#N)cccc1-c1ccc(F)c2c1CC[C@H]2Oc1ccc([C@H]2C[C@@H]2C(=O)O)cc1 [Example 54 in WO 2013/178575, reference compound]
2.5%^

Field: next compound
[ask] Query: Amount of degradation after 2 h; subject: `Cc1cc(OCCCS(C)(=O)=O)cc(C)c1-c1ccc(F)c2c1CC[C@H]2Nc1cnc([C@H]2C[C@@H]2C(=O)O)cn1`
[reply] <0.5%

----------
- experimentalTarget: human GPR40 receptor (Homo sapiens (Human), UniProt O14842)
- Sequence (O14842 whole entry): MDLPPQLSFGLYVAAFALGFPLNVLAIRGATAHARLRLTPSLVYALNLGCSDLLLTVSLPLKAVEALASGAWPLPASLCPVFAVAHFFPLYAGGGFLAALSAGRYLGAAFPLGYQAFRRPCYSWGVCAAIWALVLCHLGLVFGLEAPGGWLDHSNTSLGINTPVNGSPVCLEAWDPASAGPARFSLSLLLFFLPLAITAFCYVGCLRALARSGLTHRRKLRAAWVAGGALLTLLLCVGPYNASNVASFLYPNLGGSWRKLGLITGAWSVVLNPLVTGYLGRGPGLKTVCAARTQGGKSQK
- experimentNotes: IP1 accumulation measurements using the IPOne assay system
- Format: cell-based
- runConditions: 1321N1 cells stably expressing human GPR40; IP1 accumulation; read-out: EC50
measureName: pEC50
Give bare numbers, as −log10 of the molar value.

These solved cases illustrate the format of a correct answer.
COc1cc(C)c(-c2ccc(F)c3c2CC[C@H]3Nc2cnc([C@H]3C[C@@H]3C(=O)O)cn2)c(C)c1
8.10
O=C(O)[C@H]1C[C@@H]1c1cnc(N[C@@H]2CCc3c(-c4ccccc4C(F)(F)F)ccc(F)c32)cn1
7.64
CCc1cccc(CC)c1-c1ccc(F)c2c1CC[C@H]2Nc1cnc([C@H]2C[C@@H]2C(=O)O)cn1
8.40
COc1cc(F)c(-c2ccc(F)c3c2CC[C@H]3Nc2cnc([C@H]3C[C@@H]3C(=O)O)cn2)c(F)c1
7.05
Cc1cc(OCC2(O)CCSCC2)cc(C)c1-c1ccc(F)c2c1CC[C@H]2Nc1cnc([C@H]2C[C@@H]2C(=O)O)cn1
8.00

Would you mind listing pEC50 for each of the following molecules?
1. O=C(O)[C@H]1C[C@@H]1c1cnc(N[C@@H]2CCc3c(-c4c(F)cc(OC5CC5)cc4F)ccc(F)c32)cn1
2. Cc1cc(OCC2(O)CCOCC2)cc(C)c1-c1ccc(F)c2c1CC[C@H]2Nc1cnc([C@H]2C[C@@H]2C(=O)O)cn1
3. Cc1cc(OCC2(O)CCS(=O)(=O)CC2)cc(C)c1-c1ccc(F)c2c1CC[C@H]2Nc1cnc([C@H]2C[C@@H]2C(=O)O)cn1
4. Cc1cc(OCC2(C)COC2)cc(C)c1-c1ccc(F)c2c1CC[C@H]2Nc1cnc([C@H]2C[C@@H]2C(=O)O)cn1
5. O=C(O)[C@H]1C[C@@H]1c1cnc(N[C@@H]2CCc3c(-c4c(F)cccc4F)ccc(F)c32)cn1
6. COc1cc(OC)c(Cl)c(-c2ccc(F)c3c2CC[C@H]3Nc2cnc([C@H]3C[C@@H]3C(=O)O)cn2)c1Cl
7. O=C(O)[C@H]1C[C@@H]1c1cnc(N[C@@H]2CCc3c(-c4ccc(-c5cnco5)cc4)ccc(F)c32)cn1
8. Cc1cc(C(=O)O)cc(C)c1-c1ccc(F)c2c1CC[C@H]2Nc1cnc([C@H]2C[C@@H]2C(=O)O)cn1

[reply]
1: 7.25; 2: 7.96; 3: 7.85; 4: 8.15; 5: 7.11; 6: 8.30; 7: 6.84; 8: 6.45

----------
- experimentalTarget: human GPR40 receptor (Homo sapiens (Human))
- experimentNotes: IP1 accumulation measurements using the IPOne assay system
- Format: cell-based
- runConditions: 1321N1 cells stably expressing human GPR40; IP1 accumulation; read-out: EC50
measureName: EC50 (nM)
Numbers only, in nM.

These solved cases illustrate the format of a correct answer.
Cc1cc(-c2ccnn2C)cc(C)c1-c1ccc(F)c2c1CC[C@H]2Nc1cnc([C@H]2C[C@@H]2C(=O)O)cn1
12
Cc1cc(-c2cnccn2)cc(C)c1-c1ccc(F)c2c1CC[C@H]2Nc1cnc([C@H]2C[C@@H]2C(=O)O)cn1
4

Field: next molecule
[ask] Query: EC50; subject: `Cc1cc(OCCC(C)(C)O)cc(C)c1-c1ccc(F)c2c1CC[C@H]2Nc1cnc([C@@H]2C[C@H]2C(=O)O)cn1`
[reply] 164

----------
- experimentalTarget: human GPR40 receptor (Homo sapiens (Human), UniProt O14842)
- experimentNotes: IP1 accumulation measurements using the IPOne assay system
- Assay type: cell-based
- runConditions: 1321N1 cells stably expressing human GPR40; IP1 accumulation; read-out: EC50
I'd appreciate it if you could supply EC50 values for the items below.
Give bare numbers, in nM.

These solved cases illustrate the format of a correct answer.
Cc1cc(C(N)=O)cc(C)c1-c1ccc(F)c2c1CC[C@H]2Nc1cnc([C@H]2C[C@@H]2C(=O)O)cn1 [Example 10]
24
Cc1cc(-c2cc(=O)n(C)cn2)cc(C)c1-c1ccc(F)c2c1CC[C@H]2Nc1cnc([C@H]2C[C@@H]2C(=O)O)cn1 [Example 11]
6
Cc1cc(OCC2CCOC2)cc(C)c1-c1ccc(F)c2c1CC[C@H]2Nc1cnc([C@H]2C[C@@H]2C(=O)O)cn1 (some centres unmarked) [Example 43]
18

Would you mind listing EC50 for each of the following compounds?
1. O=C(O)[C@H]1C[C@@H]1c1cnc(N[C@@H]2CCc3c(-c4c(F)cc(F)cc4F)ccc(F)c32)cn1 [Example 50]
2. COc1cc(OC)c(F)c(-c2ccc(F)c3c2CC[C@H]3Nc2cnc([C@H]3C[C@@H]3C(=O)O)cn2)c1F [Example 37]
3. N#CC1(c2ccccc2-c2ccc(F)c3c2CC[C@H]3Nc2cnc([C@H]3C[C@@H]3C(=O)O)cn2)CC1 [Example 26]
4. Cc1cc(C#N)cc(C)c1-c1ccc(F)c2c1CC[C@H]2Nc1cnc([C@H]2C[C@@H]2C(=O)O)cn1 [Example 51]
5. CNC(=O)c1cc(C)c(-c2ccc(F)c3c2CC[C@H]3Nc2cnc([C@H]3C[C@@H]3C(=O)O)cn2)c(C)c1 [Example 45]

[reply]
74
81
367
9
23
